Listed below: Activity values for each entry.
testedTarget: Glycerophosphocholine cholinephosphodiesterase ENPP6 (Homo sapiens) (UniProt Q6UWR7)
Sequence (Q6UWR7 whole entry): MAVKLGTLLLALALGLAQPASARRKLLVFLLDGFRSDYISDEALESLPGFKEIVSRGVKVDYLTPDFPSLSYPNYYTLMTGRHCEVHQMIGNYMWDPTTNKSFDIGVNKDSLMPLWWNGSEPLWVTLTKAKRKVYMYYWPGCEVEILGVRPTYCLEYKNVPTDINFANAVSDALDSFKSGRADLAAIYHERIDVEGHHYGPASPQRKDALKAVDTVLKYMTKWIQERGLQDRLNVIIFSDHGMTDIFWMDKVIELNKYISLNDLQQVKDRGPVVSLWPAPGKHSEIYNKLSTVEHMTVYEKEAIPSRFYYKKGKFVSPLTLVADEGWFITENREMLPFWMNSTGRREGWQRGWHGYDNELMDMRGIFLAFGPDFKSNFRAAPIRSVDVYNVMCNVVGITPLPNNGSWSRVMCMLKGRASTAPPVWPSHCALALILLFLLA
testProtocol: Inhibition of C-terminal FLAG tagged human recombinant NPP6 expressed in insect sf9 cells assessed as remaining enzyme activity response at 10 uM using pNPPC as substrate measured every 2 mins for 1 hr by […]

- querySmiles: "O=C(O)c1cccc(N2CCN(C(=O)COc3ccc(Cl)cc3Cl)CC2)c1"
  testedTarget: "Glycerophosphocholine cholinephosphodiesterase ENPP6 (Homo sapiens) (UniProt Q6UWR7)"
  Activity: "95.2%"
- querySmiles: "O=C(CCCOc1ccc(Cl)cc1Cl)N1CCN(c2ccc([N+](=O)[O-])cc2)CC1"
  testedTarget: "Glycerophosphocholine cholinephosphodiesterase ENPP6 (Homo sapiens) (UniProt Q6UWR7)"
  Activity: "92.2%"
- querySmiles: "O=C(COc1ccc(Cl)cc1)N1CCN(c2ccc([N+](=O)[O-])cc2)CC1"
  testedTarget: "Glycerophosphocholine cholinephosphodiesterase ENPP6 (Homo sapiens) (UniProt Q6UWR7)"
  Activity: "94%"
- querySmiles: "O=C(O)c1cccc(N2CCN(C(=O)COc3ccc(Cl)cc3)CC2)c1"
  testedTarget: "Glycerophosphocholine cholinephosphodiesterase ENPP6 (Homo sapiens) (UniProt Q6UWR7)"
  Activity: "93.4%"
- querySmiles: "O=C(COc1cc(Cl)cc(Cl)c1)N1CCN(c2ccccc2[N+](=O)[O-])CC1"
  testedTarget: "Glycerophosphocholine cholinephosphodiesterase ENPP6 (Homo sapiens) (UniProt Q6UWR7)"
  Activity: "93.4%"
- querySmiles: "O=C(O)c1cccc(N2CCN(C(=O)COc3cccc(Cl)c3)CC2)c1"
  testedTarget: "Glycerophosphocholine cholinephosphodiesterase ENPP6 (Homo sapiens) (UniProt Q6UWR7)"
  Activity: "96.4%"
- querySmiles: "O=C(COc1ccc(Cl)cc1Cl)N1CCN(c2cccc([N+](=O)[O-])c2)CC1"
  testedTarget: "Glycerophosphocholine cholinephosphodiesterase ENPP6 (Homo sapiens) (UniProt Q6UWR7)"
  Activity: "89.8%"
- querySmiles: "O=C(O)c1cccc(N2CCN(C(=O)COc3cccc(C(F)(F)F)c3)CC2)c1"
  testedTarget: "Glycerophosphocholine cholinephosphodiesterase ENPP6 (Homo sapiens) (UniProt Q6UWR7)"
  Activity: "89.2%"
- querySmiles: "O=C(COc1cc(Cl)cc(Cl)c1)N1CCN(c2ccc([N+](=O)[O-])cc2)CC1"
  testedTarget: "Glycerophosphocholine cholinephosphodiesterase ENPP6 (Homo sapiens) (UniProt Q6UWR7)"
  Activity: "95.8%"
- querySmiles: "O=C(O)c1ccccc1N1CCN(C(=O)COc2cc(Cl)cc(Cl)c2)CC1"
  testedTarget: "Glycerophosphocholine cholinephosphodiesterase ENPP6 (Homo sapiens) (UniProt Q6UWR7)"
  Activity: "91%"
- querySmiles: "O=C(COc1cc(Cl)cc(Cl)c1)N1CCN(c2cccc([N+](=O)[O-])c2)CC1"
  testedTarget: "Glycerophosphocholine cholinephosphodiesterase ENPP6 (Homo sapiens) (UniProt Q6UWR7)"
  Activity: "89.8%"
- querySmiles: "O=C(COc1ccc(Cl)cc1Cl)N1CCN(c2ccc([N+](=O)[O-])cc2)CC1"
  testedTarget: "Glycerophosphocholine cholinephosphodiesterase ENPP6 (Homo sapiens) (UniProt Q6UWR7)"
  Activity: "92.2%"
- querySmiles: "O=C(O)c1ccccc1N1CCN(C(=O)COc2ccc(C(F)(F)F)cc2)CC1"
  testedTarget: "Glycerophosphocholine cholinephosphodiesterase ENPP6 (Homo sapiens) (UniProt Q6UWR7)"
  Activity: "97.6%"

---

Listed below: IC50 values for each entry.
testedTarget: Autotaxin (Homo sapiens, UniProt Q13822)
testProtocol: Inhibition of C-terminal FLAG tagged human recombinant ATX expressed in insect sf9 cells using FS-3 as substrate measured every 2 mins for 60 mins by FRET assay

- querySmiles: "O=C(COc1ccc(C(F)(F)F)cc1)N1CCN(c2cccc([N+](=O)[O-])c2)CC1"
  IC50 [µM]: 4.2
- querySmiles: "O=C(COc1cccc(F)c1)N1CCN(c2cccc([N+](=O)[O-])c2)CC1"
  IC50 [µM]: 6.2
- querySmiles: "O=C(COc1ccc(Cl)cc1)N1CCN(c2ccc([N+](=O)[O-])cc2)CC1"
  IC50 [µM]: 2.2
- querySmiles: "O=C(O)c1ccccc1N1CCN(C(=O)COc2cc(Cl)cc(Cl)c2)CC1"
  IC50 [µM]: 2.2
- querySmiles: "O=C(COc1ccccc1C(F)(F)F)N1CCN(c2cccc([N+](=O)[O-])c2)CC1"
  IC50 [µM]: 6.7
- querySmiles: "O=C(COc1ccc(Cl)cc1)N1CCN(c2cccc([N+](=O)[O-])c2)CC1"
  IC50 [µM]: 5.4
- querySmiles: "O=C(COc1cccc(F)c1)N1CCN(c2ccc([N+](=O)[O-])cc2)CC1"
  IC50 [µM]: 6.6
- querySmiles: "O=C(COc1ccc(F)cc1)N1CCN(c2ccc([N+](=O)[O-])cc2)CC1"
  IC50 [µM]: 6.4
- querySmiles: "O=C(O)c1cccc(N2CCN(C(=O)COc3cccc(F)c3)CC2)c1"
  IC50 [µM]: 8.9
- querySmiles: "O=C(COc1cccc(Cl)c1)N1CCN(c2ccc([N+](=O)[O-])cc2)CC1"
  IC50 [µM]: 4.6

---

Listed below: inhibition values for each entry.
testedTarget: Autotaxin (Homo sapiens)
testProtocol: Inhibition of C-terminal FLAG tagged human recombinant ATX expressed in insect sf9 cells at 10 uM using FS-3 as substrate measured every 2 mins for 60 mins by FRET assay
quantityName: inhibition (%)

- querySmiles: "CCOC(=O)c1c(C)[nH]c(C(=O)OCC(=O)NCc2ccco2)c1C"
  quantityName: "inhibition"
  endpointResult: 15.6
- querySmiles: "O=C(O)c1ccccc1N1CCN(C(=O)COc2ccccc2Cl)CC1"
  quantityName: "inhibition"
  endpointResult: 12.1
- querySmiles: "CCOc1ccc(N2C(=O)/C(=C3\\C(=O)Nc4ccc(Br)cc43)SC2=S)cc1"
  quantityName: "inhibition"
  endpointResult: -3.35
- querySmiles: "COC(CNCc1cc(Cl)c(CNCC(OC)OC)cc1Cl)OC"
  quantityName: "inhibition"
  endpointResult: 18.6
- querySmiles: "CCc1ccc(OCC(=O)Nc2ccc(-c3nc4ccccc4o3)cc2)cc1"
  quantityName: "inhibition"
  endpointResult: 34.7
- querySmiles: "Cc1cc(OCC(=O)Nc2ccc(-c3nc4ncccc4o3)cc2)ccc1Cl"
  quantityName: "inhibition"
  endpointResult: 4.63

---

testedTarget: Autotaxin (Homo sapiens)
testProtocol: Inhibition of C-terminal FLAG tagged human recombinant ATX expressed in insect sf9 cells at 10 uM using FS-3 as substrate measured every 2 mins for 60 mins by FRET assay
Classification field: enter TRUE for inhibition values not below 20%, FALSE for values below it.

- compound: "COc1ccc2c(c1)C(NCc1cc(OC)c(OC)cc1N)CCO2 (stereo not given)"
  classification: "TRUE"
- compound: "O=C(O)c1ccccc1N1CCN(C(=O)COc2ccc(Cl)cc2)CC1"
  classification: "TRUE"
- compound: "O=C(O)c1cccc(N2CCN(C(=O)COc3ccc(C(F)(F)F)cc3)CC2)c1"
  classification: "TRUE"
- compound: "CCc1nc(C)cc(NCC(=O)C2(O)CC3(C)CCC4C5C=CC(=O)C=C5CCC45C3C25)c1O (stereo not given)"
  classification: "FALSE"
- compound: "COc1cc(C(=O)Nc2ccc(C(C)=O)cc2)c(Br)c(OC)c1OC"
  classification: "FALSE"
- compound: "CCCCC(CC)C(=O)Nc1nnc(C2CCCCC2)s1 (stereo not given)"
  classification: "FALSE"
- compound: "COc1ccc(/C(N)=N/OC(=O)COc2ccc(C(C)(C)C)cc2Br)cc1OC"
  classification: "FALSE"
- compound: "O=C(COc1cccc(F)c1)N1CCN(c2cccc([N+](=O)[O-])c2)CC1"
  classification: "TRUE"
- compound: "CC1=NC(c2cccc(C)c2)C(O)=C1/C=C1/C(=O)N(c2ccc(C)cc2C)N=C1C (stereo not given)"
  classification: "FALSE"

---

testedTarget: Autotaxin (Homo sapiens)
testProtocol: Inhibition of C-terminal FLAG tagged human recombinant ATX expressed in insect sf9 cells using FS-3 as substrate measured every 2 mins for 60 mins by FRET assay
pIC50: −log10 of the molar value.

- querySmiles: "O=C(COc1ccc(Cl)cc1Cl)N1CCN(c2cccc([N+](=O)[O-])c2)CC1"
  pIC50: 5.47
- querySmiles: "O=C(COc1cc(Cl)cc(Cl)c1)N1CCN(c2ccccc2[N+](=O)[O-])CC1"
  pIC50: 5.52
- querySmiles: "O=C(O)c1cccc(N2CCN(C(=O)COc3ccc(Cl)cc3Cl)CC2)c1"
  pIC50: 5.68
- querySmiles: "O=C(COc1ccc(C(F)(F)F)cc1)N1CCN(c2ccccc2[N+](=O)[O-])CC1"
  pIC50: 5.33
- querySmiles: "O=C(COc1ccc(C(F)(F)F)cc1)N1CCN(c2ccc([N+](=O)[O-])cc2)CC1"
  pIC50: 5.09
- querySmiles: "O=C(O)c1ccc(N2CCN(C(=O)COc3cccc(Cl)c3)CC2)cc1"
  pIC50: 5.19
- querySmiles: "O=C(O)c1cccc(N2CCN(C(=O)COc3ccccc3C(F)(F)F)CC2)c1"
  pIC50: 5.09
- querySmiles: "O=C(O)c1cccc(N2CCN(C(=O)COc3cccc(C(F)(F)F)c3)CC2)c1"
  pIC50: 5.66
- querySmiles: "O=C(O)c1cccc(N2CCN(C(=O)COc3ccc(F)cc3)CC2)c1"
  pIC50: 5.34
- querySmiles: "O=C(COc1cccc(Cl)c1)N1CCN(c2cccc([N+](=O)[O-])c2)CC1"
  pIC50: 5.24
